Test system: NCI-H23 lung
Assay: NCI tumour cell line growth inhibition, 48 h
READOUT NAME: TGI

MOLECULE	MEASUREMENT
CN(C)CCNc1nc2ccccc2c2c1CCCC2	> 100 µM
CC[C@H](NC(=O)[C@H]1CCCCN1C)C(=O)N(C)[C@H](C[C@@H](OC(C)=O)c1nc(C(=O)N[C@@H](Cc2ccccc2)C[C@H](C)C(=O)O)cs1)C(C)C	> 14.3 µM
COc1cc2c(cc1C[C@H]1[C@@H]3C[C@H]4c5c(c6ccccc6n5C)C[C@@H]([C@@H]3CO[C@]1(C)OC(C)=O)N4C)c1c(n2C)C2C[C@H]3C(C(C)=O)=COC[C@H]3[C@H](C1)N2C	> 25 µM
Cc1ccc(Cl)cc1Nc1nc(C(F)(F)F)ccc1C(=O)N/N=C/c1cccnc1	20.3 µM
O=C1C(Cl)N(c2cccc(Cl)c2)C1c1c[nH]c2ccccc12 (stereo not drawn)	> 100 µM
COC(=O)C(Cc1nc2ccccc2[nH]c1=O)/C(=N\NC(C)(C)C)C(=O)Nc1c(C)cc(Br)cc1C (stereo not drawn)	78 µM
COc1c(O)c(OC)c2oc(-c3ccc(O)c(O)c3)c(OC)c(=O)c2c1O	> 100 µM
CSc1ccc(-c2ccccc(=O)c2O)cc1	28.3 µM
